Target: UniProt P29274
Sequence (P29274 whole entry): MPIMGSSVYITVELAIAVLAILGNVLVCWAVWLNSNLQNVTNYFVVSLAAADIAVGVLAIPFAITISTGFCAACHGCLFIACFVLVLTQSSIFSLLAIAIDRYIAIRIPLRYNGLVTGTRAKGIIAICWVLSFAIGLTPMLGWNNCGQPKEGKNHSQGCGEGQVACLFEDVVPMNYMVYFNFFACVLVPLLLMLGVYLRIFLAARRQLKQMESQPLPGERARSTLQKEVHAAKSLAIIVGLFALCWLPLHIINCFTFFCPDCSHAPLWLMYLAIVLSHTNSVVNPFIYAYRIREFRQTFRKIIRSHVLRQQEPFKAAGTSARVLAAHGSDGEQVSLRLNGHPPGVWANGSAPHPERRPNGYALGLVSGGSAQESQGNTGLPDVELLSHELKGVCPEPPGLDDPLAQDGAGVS
Experiment: A2a receptor affinity radioligand binding assay ([3H] SCH58261, membranes from HEK293 or CHO cells)
Details: unstarred values: radioligand binding
pIC50: −log10 of the molar value.
quantity-name: pIC50

P = COc1ccc2c(c1)nc(N)n1nc([C@@H]3CCCN(c4ccc(C(C)=O)cc4)C3)nc21
Q = COc1ccc2c(c1)nc(N)n1nc([C@@H]3CC[C@H](C)N(c4cn(CC(C)(C)O)nc4C)C3)nc21
Query :: Hey, which is lower on measured pIC50, P or Q ? Response format: the label of the selected entry.
Result :: P
(P: 8.66, Q: 9.40)

1 = COc1cccc2c1nc(N)n1nc([C@@H]3CCCN(c4cnn(CC5CCC5)c4)C3)nc21
2 = COc1ccc2c(c1)nc(N)n1nc([C@@H]3CC[C@H](C)N(c4cnn(C5CCC[C@@H]5O)c4)C3)nc21 (single isomer, unassigned) [Example 210B]
3 = COc1cccc2c1nc(N)n1nc([C@@H]3CCCN(c4cnn(CC5(O)CCCC5)c4)C3)nc21
4 = Cn1cc(N2CCCC(c3nc4c5cccc(Cl)c5nc(N)n4n3)C2)cn1 (single isomer, unassigned) [Example 132A]
Query :: Sort the 4 molecules by pIC50; largest first, smallest last. Your answer should be the labels, listed in the requested order.
Result :: 2, 3, 1, 4
(2: 10.00, 3: 9.10, 1: 8.85, 4: 7.73)

I = COc1cccc2c1nc(N)n1nc([C@@H]3CCCN(c4cnn(C5CCC5)c4)C3)nc21
II = COc1cccc2c1nc(N)n1nc(C3CCC(C)N(c4cnn(CC(F)(F)F)c4)C3)nc21 (single isomer, unassigned) [Example 142A]
III = CCc1ccc2c(c1)nc(N)n1nc([C@@H]3CC[C@H](C)N(c4cnn(CC(C)(C)O)c4)C3)nc21
Query :: Sort the 3 molecules by pIC50; largest first, smallest last. Your answer should be the labels, listed in the requested order.
Result :: I, III, II
(I: 9.00, III: 8.55, II: 7.27)

P = COc1cccc2c1nc(N)n1nc([C@@H]3CCCN(c4ccn(C)n4)C3)nc21
Q = Cn1cc(N2CCCC(c3nc4c5ccc(C(F)(F)F)cc5nc(N)n4n3)C2)cn1 (single isomer, unassigned)
Query :: Which is greater in pIC50, the first item P or the second item Q ? Response format: the label of the selected entry.
Result :: P
(P: 9.15, Q: 7.35)

* * *

Molecular target: human A2b adenosine receptor (Homo sapiens (Human), UniProt P29275)
Sequence (P29275 whole entry): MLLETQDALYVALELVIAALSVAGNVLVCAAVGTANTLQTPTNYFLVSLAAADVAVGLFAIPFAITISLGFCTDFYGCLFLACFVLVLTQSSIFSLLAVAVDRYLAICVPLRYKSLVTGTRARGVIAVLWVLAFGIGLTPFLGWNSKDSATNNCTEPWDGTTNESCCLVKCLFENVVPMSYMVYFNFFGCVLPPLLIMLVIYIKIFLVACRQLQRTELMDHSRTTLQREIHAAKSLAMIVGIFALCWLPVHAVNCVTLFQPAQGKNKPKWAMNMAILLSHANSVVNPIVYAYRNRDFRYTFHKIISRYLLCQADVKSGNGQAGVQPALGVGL
Test: A2b radioligand filtration binding assay (tritiated proprietary A2b antagonist, HEK293 membranes)
Settings: unstarred values: radioligand binding
quantity-name: IC50 (nM)

Please review the following examples before continuing.
compound	assay-system	IC50 [nM]
Cn1cc(N2CCCC(c3nc4c5c(F)ccc(F)c5nc(N)n4n3)C2)cn1 (single isomer, unassigned) [Example 172]	human A2b adenosine receptor (Homo sapiens (Human), UniProt P29275)	375
COc1ccc2c(c1)nc(N)n1nc([C@@H]3CCCN(c4cnn([C@@H]5CCC[C@H]5O)c4)C3)nc21 [Example 187A]	human A2b adenosine receptor (Homo sapiens (Human), UniProt P29275)	1290
COc1cccc2c1nc(N)n1nc([C@@H]3CCCN(c4cc(C(F)(F)F)c(=O)n(C)c4)C3)nc21 [Example 99]	human A2b adenosine receptor (Homo sapiens (Human), UniProt P29275)	98.4
COc1cccc2c1nc(N)n1nc(C3CCCCN(c4cn(C)nn4)C3)nc21 (stereo not shown) [Example 175]	human A2b adenosine receptor (Homo sapiens (Human), UniProt P29275)	23.2
CCc1ccc2c(c1)nc(N)n1nc([C@@H]3CC[C@H](C)N(c4cnn(CC(C)(C)O)c4)C3)nc21 [Example 207]	human A2b adenosine receptor (Homo sapiens (Human), UniProt P29275)	125

a = COc1ccc2c(c1)nc(N)n1nc([C@@H]3CCCN(c4cn(CC(C)(C)O)nc4C)C3)nc21 [Example 180]
b = COc1cccc2c1nc(N)n1nc([C@@H]3CCCN(c4nnc5n4CCNC5)C3)nc21 [Example 71]
Query :: Hey, which is lower on measured IC50, a or b ? Response format: the label of the selected entry.
Result :: a
(a: 250 nM, b: 5610 nM)

Each recorded value in this set is attributed to patent US12263171B2.
